target: Sucrase-isomaltase, intestinal (Rattus norvegicus, UniProt P23739); assay: Inhibition of rat intestinal isomaltase
Sequence (P23739 1-1013 limits assumed): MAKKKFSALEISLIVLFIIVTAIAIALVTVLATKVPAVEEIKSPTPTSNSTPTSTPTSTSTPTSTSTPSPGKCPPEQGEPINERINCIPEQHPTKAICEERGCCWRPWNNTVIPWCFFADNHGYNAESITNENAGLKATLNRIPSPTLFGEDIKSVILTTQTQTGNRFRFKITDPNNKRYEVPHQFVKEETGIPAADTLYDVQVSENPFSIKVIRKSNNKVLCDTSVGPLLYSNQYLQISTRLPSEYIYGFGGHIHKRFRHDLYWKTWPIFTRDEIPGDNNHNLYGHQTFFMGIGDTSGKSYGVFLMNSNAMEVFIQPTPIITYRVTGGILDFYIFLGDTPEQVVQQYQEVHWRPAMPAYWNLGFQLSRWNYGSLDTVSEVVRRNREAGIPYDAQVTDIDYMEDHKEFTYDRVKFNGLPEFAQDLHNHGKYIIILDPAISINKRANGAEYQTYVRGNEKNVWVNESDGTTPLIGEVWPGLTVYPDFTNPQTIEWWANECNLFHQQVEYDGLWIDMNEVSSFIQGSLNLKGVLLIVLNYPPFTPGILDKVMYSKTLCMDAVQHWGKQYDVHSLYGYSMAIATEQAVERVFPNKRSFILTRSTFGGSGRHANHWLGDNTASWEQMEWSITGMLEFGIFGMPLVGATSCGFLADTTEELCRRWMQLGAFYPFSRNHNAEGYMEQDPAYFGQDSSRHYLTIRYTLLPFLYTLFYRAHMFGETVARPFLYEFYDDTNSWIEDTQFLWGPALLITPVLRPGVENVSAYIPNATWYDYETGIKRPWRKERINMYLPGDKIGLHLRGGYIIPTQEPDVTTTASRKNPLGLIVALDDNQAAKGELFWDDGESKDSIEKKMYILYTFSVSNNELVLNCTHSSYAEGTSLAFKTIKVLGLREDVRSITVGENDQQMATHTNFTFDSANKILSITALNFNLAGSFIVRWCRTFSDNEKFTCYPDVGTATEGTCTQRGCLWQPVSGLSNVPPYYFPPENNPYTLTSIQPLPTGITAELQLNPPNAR
Sequence (P23739 1014-1841 limits assumed): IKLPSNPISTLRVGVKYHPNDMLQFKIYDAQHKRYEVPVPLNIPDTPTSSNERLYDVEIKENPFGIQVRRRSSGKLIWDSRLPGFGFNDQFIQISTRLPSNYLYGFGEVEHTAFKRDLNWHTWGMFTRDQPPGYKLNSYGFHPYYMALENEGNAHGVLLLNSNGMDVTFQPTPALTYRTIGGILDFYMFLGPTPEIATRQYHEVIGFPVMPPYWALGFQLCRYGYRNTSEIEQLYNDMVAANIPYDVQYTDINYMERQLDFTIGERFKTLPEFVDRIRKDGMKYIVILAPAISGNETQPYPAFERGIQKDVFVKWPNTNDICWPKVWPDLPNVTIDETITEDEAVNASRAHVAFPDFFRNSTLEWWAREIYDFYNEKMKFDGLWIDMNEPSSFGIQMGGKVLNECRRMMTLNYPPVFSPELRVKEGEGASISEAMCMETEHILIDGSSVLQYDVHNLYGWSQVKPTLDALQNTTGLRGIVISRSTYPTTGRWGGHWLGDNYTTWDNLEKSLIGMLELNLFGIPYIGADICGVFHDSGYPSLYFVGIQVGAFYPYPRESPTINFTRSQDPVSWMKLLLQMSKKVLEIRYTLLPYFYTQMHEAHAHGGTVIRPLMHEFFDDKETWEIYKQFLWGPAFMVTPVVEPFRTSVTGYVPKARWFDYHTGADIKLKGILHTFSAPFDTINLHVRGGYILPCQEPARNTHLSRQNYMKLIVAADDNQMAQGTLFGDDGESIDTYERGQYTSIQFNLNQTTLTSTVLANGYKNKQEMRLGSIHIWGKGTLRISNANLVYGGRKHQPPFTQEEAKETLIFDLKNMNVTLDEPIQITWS
pKi: −log10 of the molar value.
MEASURED QUANTITY: pKi

a. O=S(=O)([O-])O[C@@H](CO)[C@H](O)C[S@+]1C[C@@H](O)[C@H](O)[C@H]1CO
b. [O-][S+]1CC(O)C(O)C(O)CC(O)CC(O)C(O)C(O)C(O)C1 (stereo not drawn)
c. O=S(=O)([O-])O[C@@H]([C@H](O)[C@H](O)[C@@H](O)CO)[C@H](O)C[S+]1C[C@@H](O)[C@H](O)[C@H]1CO (stereo partly drawn)
Please list these in order of increasing pKi. Thank you! Answer with the labels in sequence, matching the requested order.
c, a, b
(c: 5.38, a: 5.96, b: 6.38)

---

biological target: Sucrase-isomaltase, intestinal (Rattus norvegicus); assay: Inhibition of rat intestinal isomaltase
pIC50: −log10 of the molar value.
MEASURED QUANTITY: pIC50

COMPOUND	pIC50
O=S(=O)([O-])O[C@@H](CO)[C@H](O)C[S@+]1C[C@@H](O)[C@H](O)[C@H]1CO	5.75

P. O=S(=O)([O-])O[C@@H]([C@H](O)[C@H](O)[C@@H](O)CO)[C@H](O)C[S+]1C[C@@H](O)[C@H](O)[C@H]1CO (stereo partly drawn)
Q. [O-][S+]1CC(O)C(O)C(O)CC(O)CC(O)C(O)C(O)C(O)C1 (stereo not drawn)
Just curious, which one has the larger pIC50 reading, P or Q ? API: response body contains the label of the selected item.
Q
(Q: 7.00, P: 5.35)
